For each record, write down the corresponding pIC50.
- tested_on: T1, recombinant human DLL4 (C-terminally His-tagged extracellular domain, R&D Systems) (human, UniProt Q9NR61 25-522, biotinylated in the competition ELISA)
- T1 construct: also called rhDLL4; hDLL4
- assay_procedure: competition ELISA hDLL4/hNotch1-Fc; summary table
Scale note: pIC50 = -log10(concentration in M).

Return reported pIC50; argument: DLLBII115A05 (VHH, not shown: small tags and cut ends, parent VHH; also called 115A05 (wt); 115A5) VHH: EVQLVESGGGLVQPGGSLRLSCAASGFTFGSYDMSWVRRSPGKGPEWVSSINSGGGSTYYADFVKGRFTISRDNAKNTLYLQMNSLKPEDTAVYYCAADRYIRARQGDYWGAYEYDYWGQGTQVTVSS
8.12

Return reported pIC50; argument: DLLBII133G05 (VHH, not shown: small tags and cut ends) VHH: EVQLVESGGGLVQPGGSLRLSCAASGFTFGSYDMSWVRRSPGKGPEWVSAINSGGGSTYYTDYVKGRFTISRDNAKNTLYLQMNSLKPEDTAVYYCAADRYIWARQGEYWGAYAYDYWGQGTQVTVSS
8.70

Return reported pIC50; argument: DLLBII129H07 (VHH, not shown: small tags and cut ends) VHH: EVQLVESGGGLVQAGGSLRLSCAASGRTFSSYAMAWYRQAPGKEREYVAAIRWSGGTAYYADSVQGRFTISRDNAKNTVYLQMNSLKPEDTAVYYCANRAPDTRLEPYEYDYWGQGTQVTVSS
9.00

Return reported pIC50; argument: DLLBII134D10 (VHH, not shown: small tags and cut ends) VHH: EVQLVESGGGLVQPGGSLRLSCAASGFTIGSYDMSWVRRSPGKGPEWVSSINSGGGSTYYTDYVKGRFTISRDNAKNTLYLQMNSLKPEDTAVYYCAADRYIWARQGEYWGAYAYDYWGQGTQVTVSS
8.89
